Assay system Calcitonin gene-related peptide type 1 receptor (Homo sapiens, UniProt Q16602); read-out recorded as pIC50.
pIC50: −log10 of the molar value.
Observable: pIC50

{"Smiles representation": "Cc1cc(C[C@@H](OC(=O)N2CCC(N3Cc4ccccc4NC3=O)CC2)C(=O)N2CCC(N3CCCCC3)CC2)cc2cn[nH]c12", "Measured value": 11.00}

a = Cc1cc(C[C@@H](OC(=O)N2CCC(c3cc4cccc(F)c4[nH]c3=O)CC2)C(=O)N2CCC(N3CCCCC3)CC2)cc2cn[nH]c12
b = Cc1cc(C[C@@H](OC(=O)N2CCC(c3cc4ccccc4[nH]c3=O)CC2)C(=O)N2CCCCC2)cc2cn[nH]c12
c = Cc1cc(C[C@@H](OC(=O)N2CCC(N3Cc4cccc(F)c4NC3=O)CC2)C(=O)N2CCC(N3CCCCC3)CC2)cc2cn[nH]c12
Q: I would appreciate it if you could sort these 3 compounds by pIC50, starting from the smallest number. Respond with an ordered listing of the labels, as requested.
Result: b, a, c
(b: 8.74, a: 10.24, c: 10.96)

---

test: Solubility at pH 7; assay type: physicochemical; conditions: buffer
Observable: solubility

Q: Would you kindly share the measured solubility for Cc1cc(C[C@@H](OC(=O)N2CCC(c3cc4ccccc4[nH]c3=O)CC2)C(=O)N2CCC(N3CCCCC3)CC2)cc2cn[nH]c12 ?
Result: > 50 mg/mL

---

assay: Oxidative stability assessed as compound remaining in water at 0.15 mg/mL at pH 4 after 48 hrs in presence of free radical generator AAPH; format: physicochemical; conditions: read-out: Activity
Observable: remaining at 48 h, 0.15 mg/mL (%)

{"Smiles representation": "Cc1cc(C[C@@H](NC(=O)N2CCC(N3Cc4cccc(F)c4NC3=O)CC2)C(=O)N2CCC(N3CCCCC3)CC2)cc2cn[nH]c12", "remaining at 48 h, 0.15 mg/mL [%]": 72}
{"Smiles representation": "Cc1cc(C[C@@H](OC(=O)N2CCC(c3cc4ccccc4[nH]c3=O)CC2)C(=O)N2CCC(N3CCCCC3)CC2)cc2cn[nH]c12", "remaining at 48 h, 0.15 mg/mL [%]": 97}
